Assay: Single-dose nebulized nose-only inhalation PK in healthy rats
Format: in vivo, rat
Conditions: male, Sprague Dawley, rat, in vivo, inhaled or intranasal
observed property: Lung Cmax (µg/g)
Numbers only, in µg/g.

In the examples that follow, each entry is paired with its recorded Lung Cmax.
For CCCCCCCCCCNCCN[C@@]1(C)C[C@H](O[C@H]2[C@H](Oc3c4cc5cc3Oc3ccc(cc3Cl)[C@@H](O)[C@@H](NC(=O)[C@@H](CC(C)C)NC)C(=O)N[C@@H](CC(N)=O)C(=O)N[C@H]5C(=O)N[C@H]3C(=O)N[C@H](C(=O)N[C@H](C(=O)O)c5cc(O)cc(O)c5-c5cc3ccc5O)[C@H](O)c3ccc(c(Cl)c3)O4)O[C@H](CO)[C@@H](O)[C@@H]2O)O[C@@H](C)[C@H]1O [RV40, N-decylaminoethylvancomycin] , write its Lung Cmax.
48

For CCCCCCCCCCNC(=O)CNC1(C)CC(OC2C(Oc3c4cc5cc3Oc3ccc(cc3Cl)C(O)C3NC(=O)C(NC(=O)C5NC(=O)C(CC(N)=O)NC(=O)C(NC(=O)C(CC(C)C)NC)C(O)c5ccc(c(Cl)c5)O4)c4ccc(O)c(c4)-c4c(O)cc(O)cc4C(C(=O)O)NC3=O)OC(CO)C(O)C2O)OC(C)C1O (stereo not shown) [RV94] , write its Lung Cmax.
262

For CCCCCCCCCCCCCC(=O)OCCNC1(C)CC(OC2C(Oc3c4cc5cc3Oc3ccc(cc3Cl)C(O)C3NC(=O)C(NC(=O)C5NC(=O)C(CC(N)=O)NC(=O)C(NC(=O)C(CC(C)C)NC)C(O)c5ccc(c(Cl)c5)O4)c4ccc(O)c(c4)-c4c(O)cc(O)cc4C(C(=O)O)NC3=O)OC(CO)C(O)C2O)OC(C)C1O (stereo not shown) [RV88] , write its Lung Cmax.
26

Please look at the following molecule next.
For CCCCCCCCCCCC(=O)NCCNC1(C)CC(OC2C(Oc3c4cc5cc3Oc3ccc(cc3Cl)C(O)C3NC(=O)C(NC(=O)C5NC(=O)C(CC(N)=O)NC(=O)C(NC(=O)C(CC(C)C)NC)C(O)c5ccc(c(Cl)c5)O4)c4ccc(O)c(c4)-c4c(O)cc(O)cc4C(C(=O)O)NC3=O)OC(CO)C(O)C2O)OC(C)C1O (stereo not shown) [RV62] , write its Lung Cmax.
30

###

Test system: S. aureus
Assay: Expanded panel broth microdilution MIC/MBC
Conditions: Staphylococcus aureus, ATCC43300 / MRSA, S. aureus ATCC 43300, MRSA
observed property: MIC
Reply with the number and its unit after it.

For CCCCCCCCCCNC(=O)CNC1(C)CC(OC2C(Oc3c4cc5cc3Oc3ccc(cc3Cl)C(O)C3NC(=O)C(NC(=O)C5NC(=O)C(CC(N)=O)NC(=O)C(NC(=O)C(CC(C)C)NC)C(O)c5ccc(c(Cl)c5)O4)c4ccc(O)c(c4)-c4c(O)cc(O)cc4C(C(=O)O)NC3=O)OC(CO)C(O)C2O)OC(C)C1O (stereo not shown) [RV94] , write its MIC.
0.015 µg/mL

###

Test system: MRSA ATCC BAA 1556 (USA300)
Assay: In-house broth microdilution MIC screening
Format: cell-based, Staphylococcus aureus
Details: Staphylococcus aureus; broth microdilution; read-out: MIC Value, MRSA ATCC BAA 1556
observed property: MIC (µg/mL)
One number for each entry, in µg/mL.

For CCCCCCCCCC(=O)OCCNC1(C)CC(OC2C(Oc3c4cc5cc3Oc3ccc(cc3Cl)C(O)C3NC(=O)C(NC(=O)C5NC(=O)C(CC(N)=O)NC(=O)C(NC(=O)C(CC(C)C)NC)C(O)c5ccc(c(Cl)c5)O4)c4ccc(O)c(c4)-c4c(O)cc(O)cc4C(C(=O)O)NC3=O)OC(CO)C(O)C2O)OC(C)C1O (centres unmarked) [RV54] , write its MIC.
0.167

Please look at the following molecule next.
For CCCCCCCCCCCCCC(=O)OCCNC1(C)CC(OC2C(Oc3c4cc5cc3Oc3ccc(cc3Cl)C(O)C3NC(=O)C(NC(=O)C5NC(=O)C(CC(N)=O)NC(=O)C(NC(=O)C(CC(C)C)NC)C(O)c5ccc(c(Cl)c5)O4)c4ccc(O)c(c4)-c4c(O)cc(O)cc4C(C(=O)O)NC3=O)OC(CO)C(O)C2O)OC(C)C1O (centres unmarked) [RV88] , write its MIC.
0.125

###

Tested on: S. aureus
Experiment: Expanded panel broth microdilution MIC/MBC
Conditions: Staphylococcus aureus, MRSA, read-out: MIC (median), S. aureus MRSA, 12 isolates
Exercise: for every item that follows, state its recorded MIC.
Numbers only, in µg/mL.

In the examples that follow, each entry is paired with its recorded MIC.
For CN[C@H](CC(C)C)C(=O)N[C@H]1C(=O)N[C@@H](CC(N)=O)C(=O)N[C@H]2C(=O)N[C@H]3C(=O)N[C@H](C(=O)N[C@H](C(=O)O)c4cc(O)cc(O)c4-c4cc3ccc4O)[C@H](O)c3ccc(c(Cl)c3)Oc3cc2cc(c3O[C@@H]2O[C@H](CO)[C@@H](O)[C@H](O)[C@H]2O[C@H]2C[C@](C)(N)[C@H](O)[C@H](C)O2)Oc2ccc(cc2Cl)[C@H]1O , write its MIC.
0.5

For CCCCCCCCCCNCCN[C@@]1(C)C[C@H](O[C@H]2[C@H](Oc3c4cc5cc3Oc3ccc(cc3Cl)[C@@H](O)[C@@H](NC(=O)[C@@H](CC(C)C)NC)C(=O)N[C@@H](CC(N)=O)C(=O)N[C@H]5C(=O)N[C@H]3C(=O)N[C@H](C(=O)N[C@H](C(=O)O)c5cc(O)cc(O)c5-c5cc3ccc5O)[C@H](O)c3ccc(c(Cl)c3)O4)O[C@H](CO)[C@@H](O)[C@@H]2O)O[C@@H](C)[C@H]1O , write its MIC.
0.008

Give measured MIC for every item shown.
1. CCCCCCCCCCNCCN[C@@]1(C)C[C@H](O[C@H]2[C@H](Oc3c4cc5cc3Oc3ccc(cc3Cl)[C@@H](O)[C@@H](NC(=O)[C@@H](CC(C)C)NC)C(=O)N[C@@H](CC(N)=O)C(=O)N[C@H]5C(=O)N[C@H]3C(=O)N[C@H](C(=O)N[C@H](C(=O)O)c5cc(O)c(CNCP(=O)(O)O)c(O)c5-c5cc3ccc5O)[C@H](O)c3ccc(c(Cl)c3)O4)O[C@H](CO)[C@@H](O)[C@@H]2O)O[C@@H](C)[C@H]1O
2. CCCCCCCCCCNC(=O)CNC1(C)CC(OC2C(Oc3c4cc5cc3Oc3ccc(cc3Cl)C(O)C3NC(=O)C(NC(=O)C5NC(=O)C(CC(N)=O)NC(=O)C(NC(=O)C(CC(C)C)NC)C(O)c5ccc(c(Cl)c5)O4)c4ccc(O)c(c4)-c4c(O)cc(O)cc4C(C(=O)O)NC3=O)OC(CO)C(O)C2O)OC(C)C1O (stereo not shown)

1: 0.06; 2: 0.015

###

Exercise: for every item that follows, state its recorded MIC:MBC.
System: Enterococcus faecium
Experiment: Expanded panel broth microdilution MIC/MBC
Assay type: cell-based
Conditions: E. faecium VanB VRE

In the examples that follow, each entry is paired with its recorded MIC:MBC.
For CCCCCCCCCCNCCN[C@@]1(C)C[C@H](O[C@H]2[C@H](Oc3c4cc5cc3Oc3ccc(cc3Cl)[C@@H](O)[C@@H](NC(=O)[C@@H](CC(C)C)NC)C(=O)N[C@@H](CC(N)=O)C(=O)N[C@H]5C(=O)N[C@H]3C(=O)N[C@H](C(=O)N[C@H](C(=O)O)c5cc(O)cc(O)c5-c5cc3ccc5O)[C@H](O)c3ccc(c(Cl)c3)O4)O[C@H](CO)[C@@H](O)[C@@H]2O)O[C@@H](C)[C@H]1O , write its MIC:MBC.
>8

For CCCCCCCCCCNC(=O)CNC1(C)CC(OC2C(Oc3c4cc5cc3Oc3ccc(cc3Cl)C(O)C3NC(=O)C(NC(=O)C5NC(=O)C(CC(N)=O)NC(=O)C(NC(=O)C(CC(C)C)NC)C(O)c5ccc(c(Cl)c5)O4)c4ccc(O)c(c4)-c4c(O)cc(O)cc4C(C(=O)O)NC3=O)OC(CO)C(O)C2O)OC(C)C1O (stereo not shown) , write its MIC:MBC.
>8

For CN[C@H](CC(C)C)C(=O)N[C@H]1C(=O)N[C@@H](CC(N)=O)C(=O)N[C@H]2C(=O)N[C@H]3C(=O)N[C@H](C(=O)N[C@H](C(=O)O)c4cc(O)cc(O)c4-c4cc3ccc4O)[C@H](O)c3ccc(c(Cl)c3)Oc3cc2cc(c3O[C@@H]2O[C@H](CO)[C@@H](O)[C@H](O)[C@H]2O[C@H]2C[C@](C)(N)[C@H](O)[C@H](C)O2)Oc2ccc(cc2Cl)[C@H]1O , write its MIC:MBC.
>2

Further cases:
For CCCCCCCCCCNCCN[C@@]1(C)C[C@H](O[C@H]2[C@H](Oc3c4cc5cc3Oc3ccc(cc3Cl)[C@@H](O)[C@@H](NC(=O)[C@@H](CC(C)C)NC)C(=O)N[C@@H](CC(N)=O)C(=O)N[C@H]5C(=O)N[C@H]3C(=O)N[C@H](C(=O)N[C@H](C(=O)O)c5cc(O)c(CNCP(=O)(O)O)c(O)c5-c5cc3ccc5O)[C@H](O)c3ccc(c(Cl)c3)O4)O[C@H](CO)[C@@H](O)[C@@H]2O)O[C@@H](C)[C@H]1O , write its MIC:MBC.
>8
